# System: Escherichia coli
# experiment: The compound was tested for its antibacterial activity against Escherichia coli BL21(DE3) cells in luria broth
# Assay type: functional, organism-based
Here the recorded IC50 is given for each entry.

These solved cases illustrate the format of a correct answer.
Prompt: If you can, please state the reported IC50 value of CSCC[C@H](NC=O)C(=O)N(C)[C@@H](CC(C)C)C(=O)OCC1OC(n2cc(F)c(=O)[nH]c2=O)CC1O (stereo partly drawn) .
Completion: > 100 µM

Prompt: If you can, please state the reported IC50 value of CSCC[C@H](NC=O)C(=O)N1CCC[C@H]1C(=O)OCC1OC(n2cc(F)c(=O)[nH]c2=O)CC1O (stereo partly drawn) .
Completion: > 100 µM

For the next question, use this compound.
Prompt: If you can, please state the reported IC50 value of CSCC[C@H](NC=O)C(=O)N1CCC[C@@H]1C(=O)OCC1OC(n2cc(F)c(=O)[nH]c2=O)CC1O (stereo partly drawn) .
Completion: > 100 µM
